Biological target: Calcitonin gene-related peptide type 1 receptor (Homo sapiens, UniProt O60894+Q16602)
Sequence (Q16602 whole entry, one chain of several): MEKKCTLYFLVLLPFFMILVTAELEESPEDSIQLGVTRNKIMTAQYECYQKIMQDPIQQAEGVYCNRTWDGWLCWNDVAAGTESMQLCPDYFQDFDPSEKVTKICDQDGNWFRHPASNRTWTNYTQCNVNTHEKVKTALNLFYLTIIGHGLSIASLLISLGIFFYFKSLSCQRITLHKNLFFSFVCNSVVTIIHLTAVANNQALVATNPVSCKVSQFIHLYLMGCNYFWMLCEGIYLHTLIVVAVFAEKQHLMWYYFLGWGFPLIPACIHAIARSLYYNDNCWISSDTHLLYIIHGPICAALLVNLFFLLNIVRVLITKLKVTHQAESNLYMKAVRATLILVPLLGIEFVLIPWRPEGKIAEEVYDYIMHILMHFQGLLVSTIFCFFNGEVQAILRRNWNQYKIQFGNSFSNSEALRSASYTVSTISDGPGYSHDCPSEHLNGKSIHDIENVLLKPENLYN
Assay: Antagonist activity at CGRP receptor in human SK-N-MC cells assessed as inhibition of CGRP-stimulated cAMP production preincubated for 30 mins followed by CGRP addition measured after 3 hrs by beta-lactamase reporter gene-based FRET assay
measurement_label: IC50 (nM)
Number only, in nM; omit the unit.

// below: answered compounds
compound	IC50, nM
CCN(CC)CCN1C(=O)C(CC(=O)N2CCC(N3Cc4ccccc4NC3=O)CC2)SC1c1ccccc1 (configuration not stated)	4880
CCCCN1C(=O)C(CC(=O)N2CCC(N3Cc4ccccc4NC3=O)CC2)SC1c1ccccc1 (configuration not stated)	320
CC(C)(C)CCN1C(=O)C(CC(=O)N2CCC(N3Cc4ccccc4NC3=O)CC2)SC1c1ccccc1N1CCN(CCO)CC1 (configuration not stated)	36
COCCN1C(=O)C(CC(=O)N2CCC(N3Cc4ccccc4NC3=O)CC2)SC1c1ccccc1 (configuration not stated)	1220
CCCCN1CCN(c2ccccc2C2SC(CC(=O)N3CCC(N4Cc5ccccc5NC4=O)CC3)C(=O)N2CCC(C)(C)C)CC1 (configuration not stated)	44
CN1CCN(c2cc(F)ccc2C2SC(CC(=O)N3CCC(N4CCc5ccccc5NC4=O)CC3)C(=O)N2CCC(C)(C)C)CC1 (configuration not stated)	84
CC(C)(C)CCN1C(=O)C(CC(=O)N2CCC(N3Cc4ccccc4NC3=O)CC2)SC1c1ccccc1N1CCNCC1 (configuration not stated)	60
CC(C)(C)N1C(=O)C(CC(=O)N2CCC(N3Cc4ccccc4NC3=O)CC2)SC1c1ccccc1 (configuration not stated)	7600

INPUT: I'd like to know its IC50. The compound in question is CC(C)(C)CCN1C(=O)C(CC(=O)N2CCC(N3CCc4ccccc4NC3=O)CC2)SC1c1ccccc1N1CCNCC1 (configuration not stated)
OUTPUT: 33

INPUT: Need IC50 of CN1CCN(c2ccc(F)cc2C2SC(CC(=O)N3CCC(N4CCc5ccccc5NC4=O)CC3)C(=O)N2CCC(C)(C)C)CC1 (configuration not stated) , thanks.
OUTPUT: 72

INPUT: State the recorded IC50 for this entry: O=C(CC1SC(c2ccccc2)N(CC2CC2)C1=O)N1CCC(N2Cc3ccccc3NC2=O)CC1 (configuration not stated)
OUTPUT: 840

INPUT: IC50 for CC(C)(C)CCN1C(=O)C(CC(=O)N2CCC(N3Cc4ccccc4NC3=O)CC2)SC1c1ccccc1-n1ccnc1 (configuration not stated) ?
OUTPUT: 86
